# EXPERIMENTAL_PROTOCOL: soluble fraction after stress (log2 fold change); higher = more stays soluble; pooled small domains, quantitative proteomics
# CONDITION_LABEL: stress: pH 4
# cutoff -0.2 applies to soluble fraction (log2); >= gives Y, < gives N

Problem: Please tell me: is the sequence "HMDNNFIQSLYPIAIGISKNQLDPWDLINGWVEYYLKNKEKYINHPNLKAVAVLKMKGLLIDHFRKS" at or over -0.2 in terms of soluble fraction (log2)?
Result: N

Problem: Please tell me: is the sequence "HMEQVLDEEIIKSAVQKVIKDNPSAVSDYKAGKKTAFQFLIGKAMAELQGKGHPGKISELLEKE" at or over -0.2 in terms of soluble fraction (log2)?
Result: Y

Problem: Please tell me: is the sequence "HMKESRFDYDAVLLYSDKDSITEVKDAVQHLTKEFGSVFTTKKIPEKATFGKLFRIEKGEVNIIEDN" at or over -0.2 in terms of soluble fraction (log2)?
Result: N

Problem: Please tell me: is the sequence "HMIESLKGILHKKDPTIAIIDVGGVRLSVNITLSTYEKLEEINSSIELLTYFNVREDAMELYG" at or over -0.2 in terms of soluble fraction (log2)?
Result: N

Problem: Please tell me: is the sequence "HMNNWYESSIKSLVEEYFREHGFSVVFDSSEFWDVFIEKYHKQIPSSQIALFDQVAAEARSYAFNKK" at or over -0.2 in terms of soluble fraction (log2)?
Result: N

Problem: Please tell me: is the sequence "HMKKYEIIFNDLKQSIVNGKYSNEERLPPEETLAKKYQTSRVPVQQALNALVGIGMVKRIAGSGTYVTY" at or over -0.2 in terms of soluble fraction (log2)?
Result: N

Problem: Please tell me: is the sequence "HMVPPVVRTIYGAGGKMTATFLFPGGYEVDAASGAELPGKYRVESISLDQVVLTDKDGNRVPVGFSSVAPT" at or over -0.2 in terms of soluble fraction (log2)?
Result: Y

Problem: Please tell me: is the sequence "HMDYKSTLQELVQTVKKSVTYEVIDEEGPSHNKTFTSIVKIDGIVMGKGTAGSKKASEQEAARDALSKR" at or over -0.2 in terms of soluble fraction (log2)?
Result: Y

Problem: Please tell me: is the sequence "HMNLLQAHLLRLESAALLAEVREVDRQLSRWLHPLTPQSDVAIIDERNWEAAVARLTELGVHIEEGRW" at or over -0.2 in terms of soluble fraction (log2)?
Result: N

Problem: Please tell me: is the sequence "HMTPVFGEEETVLQAAVRGIISDTDQWTMEAEAKSMLNQLGFSDYEEKMAHMSGGQKKRVALVNALLTP" at or over -0.2 in terms of soluble fraction (log2)?
Result: N

Problem: Please tell me: is the sequence "HMSPTDKATVNVYALNVRTGPGTNYKVLGSVIKGTELQVLGSSGKWLKVKYGNREAYVAGWLVK" at or over -0.2 in terms of soluble fraction (log2)?
Result: Y

Problem: Please tell me: is the sequence "HMTIPNGTVVNGTVLEAREAGAYLVRVAGQTLTAQANLPLLVGQHFRAVWDSSGDIPVLRLSDAEQALLGK" at or over -0.2 in terms of soluble fraction (log2)?
Result: Y

Problem: Please tell me: is the sequence "HMAEKNALWEEDAVYAADSSALARDGYDAIVRTDKGGKKGYLVVGTGGRERFMPLQTLVMLGYLKK" at or over -0.2 in terms of soluble fraction (log2)?
Result: Y

Problem: Please tell me: is the sequence "HMTGSETLQDIFAHLEAGTVRTALSLIPRLDAVEYEQNRQRIAELAGVRPSALDDLRKQAKREEN" at or over -0.2 in terms of soluble fraction (log2)?
Result: N

Problem: Please tell me: is the sequence "HMLIELKIPSEWAGKSLHTLNLRQNYNVNVIGFRDEKSGKLNTHFDPSKKLPDEGIILVVADNRTLEKF" at or over -0.2 in terms of soluble fraction (log2)?
Result: N

Problem: Please tell me: is the sequence "HMGSVHDAATDRIREMILGGQFEPGERLRQDDLATSLGVSTMPVREALRQLQAEGLVVFYPRKGAVVAR" at or over -0.2 in terms of soluble fraction (log2)?
Result: Y

Problem: Please tell me: is the sequence "HMREEIESVYKTLAVTEIPYIARGNSARLGSGIQTVYDFYRMEGMQVSKILGRNGSVLWLELHG" at or over -0.2 in terms of soluble fraction (log2)?
Result: Y
